Data origin, for the record: patent US12053465B2

Reported B Score values for the following molecules.
# Test system: KCC2 expression (KCC2-2A-luciferase reporter)
# assayProtocol: KCC2-2A-luciferase reporter compound screening with wild type KCC2 reporter neurons
# Format: cell-based
# conditionsUsed: WT human KCC2 reporter neurons; LINCS 0.5 μM, IRSF/SMART and ICCB 10 μM, one week; Luc/CTG normalized to in-plate DMSO; hit = B score >3

For orientation, consider the following solved cases.
                                   molecule                               assaytarget  experimentalresult
0  C[C@H](NCc1ccc(OCc2cccc(F)c2)cc1)C(N)=O [Safinamide]  KCC2 expression (KCC2-2A-luciferase reporter)                4.82
1  COc1cc2c(Oc3ccc(NC(=O)C4(C(=O)Nc5ccc(F)cc5)CC4)cc3F)ccnc2cc1OCCCN1CCOCC1  KCC2 expression (KCC2-2A-luciferase reporter)                4.05
2  O=c1cc(-c2ccccc2)oc2c(O)c(O)ccc12 [7,8-Dihydroxyflavone]  KCC2 expression (KCC2-2A-luciferase reporter)                4.01
3         O=C1Nc2ccccc2/C1=C1/Nc2ccccc2C1=O  KCC2 expression (KCC2-2A-luciferase reporter)                3.73

The value of B Score measured for the molecule CN(C)c1ccc(C=C2C(=O)Nc3ccccc32)cc1 turned out to be 3.55

The value of B Score measured for the molecule Cc1nc2n(c(=O)c1CCN1CCC(c3noc4cc(F)ccc34)CC1)CCCC2O (stereo not drawn) [Paliperidone, 9-Hydroxyrisperidone] turned out to be 11.03

The value of B Score measured for the molecule COC1=CC(=O)O[C@@H](/C=C/c2ccc3c(c2)OCO3)C1 turned out to be 7.17

The value of B Score measured for the molecule CC(C)(O)[C@H]1O[C@H]2CC[C@@]3(C)[C@@](O)(CC[C@H]4Cc5c([nH]c6ccccc56)[C@@]43C)C2=CC1=O turned out to be 4.1

The value of B Score measured for the molecule COCc1nc2c([nH]1)c(=O)n(C)c(=O)n2CC(C)C turned out to be 4.8
